test system: Aβ42; test: Aβ42 IC50 assay (SHSYSY-APP cell-based screening, UCSD sandwich Aβ42 ELISA)
Mark Fulfilled only for IC50 values smaller than 10 nM; exact matches and larger values are Not fulfilled.

Examples with answers:
[
  {
    "MOLECULAR_STRING": "COc1ccc([C@H](C)Nc2nnc(-c3ccc(-n4cnc(C)c4)c(OC)n3)cc2C)cc1",
    "GROUP_LABEL": "Fulfilled"
  },
  {
    "MOLECULAR_STRING": "COc1nc(-c2cc(C)c(NCCc3ccc(F)cc3)nn2)ccc1-n1cnc(C)c1",
    "GROUP_LABEL": "Not fulfilled"
  },
  {
    "MOLECULAR_STRING": "CCc1cc(-c2ccc(-n3cnc(C)c3)c(OC)n2)nnc1N[C@@H](C)c1ccc(F)cc1",
    "GROUP_LABEL": "Fulfilled"
  },
  {
    "MOLECULAR_STRING": "COc1nc(-c2cc(C)c(N[C@@H](CO)c3ccc(F)cc3)nn2)ccc1-n1cnc(C)c1",
    "GROUP_LABEL": "Not fulfilled"
  },
  {
    "MOLECULAR_STRING": "COc1nc(-c2cc(C)c(NC3CCCC3)nn2)ccc1-n1cnc(C)c1",
    "GROUP_LABEL": "Not fulfilled"
  }
]

**Q:** Criterion: IC50 strictly below 10 nM. Is it met by COc1nc(-c2cc(C)c(N[C@H](c3ccc(F)cc3)C(C)(C)O)nn2)ccc1-n1cnc(C)c1 ?
**A:** Fulfilled

**Q:** Criterion: IC50 strictly below 10 nM. Is it met by COc1nc(-c2cc(C)c(N[C@H](C)c3ccc(F)cc3Cl)nn2)ccc1-n1cnc(C)c1 ?
**A:** Not fulfilled

----------
Test system: Aβ42
Test: Aβ42 IC50 assay (SHSYSY-APP cell-based screening, UCSD sandwich Aβ42 ELISA)
Experimental: FIG. 8: Representative concentration response curves of Compound 1 using our primary and orthogonal medium throughput SHSYSY-APP cell-based screening assays (10). Compounds are first screened two times in triplicate in our UCSD sandwich Aβ42 ELISA on sequential days and the average of the two assays must be within 3-fold of each other before being entered into the CDD relational database. […] Aβ total peptides are measured using a sandwich ELISA. […]
MEASURE_NAME: IC50 (nM)
Give the number; nM is assumed, so skip it.

[
  {
    "COMPOUND": "CCc1cc(-c2ccc(-n3cnc(C)c3)c(OC)n2)nnc1N[C@H](C)c1ccccc1 [Example 9]",
    "IC50 [nM]": 46
  }
]

// sample COc1nc(-c2ccc(NCc3ccc(F)cc3)nn2)ccc1-n1cnc(C)c1 [Example 26] , its IC50 was 36

// sample COc1nc(-c2cc(C)c(N[C@@H](C)c3ccc(Cl)cc3)nn2)ccc1-n1cnc(C)c1 [Example 31] , its IC50 was 5.8

// sample COc1nc(-c2cc(C)c(N[C@H](C)c3ccccc3)nn2)ccc1-n1cnc(C)c1 [Example 68] , its IC50 was 80

// sample COc1nc(-c2cc(C)c(N[C@@H](C)c3cc(F)cc(F)c3)nn2)ccc1-n1cnc(C)c1 [Example 46] , its IC50 was 4.1

// sample COc1nc(-c2cc(C)c(N[C@@H](C)c3ccc(F)c(F)c3)nn2)ccc1-n1cnc(C)c1 [Example 39] , its IC50 was 6.5

----------
Listing: IC50 of selected compounds
tested on: Aβ42; experiment: Aβ42 IC50 assay (SHSYSY-APP cell-based screening, UCSD sandwich Aβ42 ELISA)
Give the number; nM is assumed, so skip it.

// sample COc1nc(-c2nnc(N[C@@H](C)c3ccccc3)c(C)c2C)ccc1-n1cnc(C)c1 , its IC50 was 37

// sample CCC[C@H](Nc1nnc(-c2ccc(-n3cnc(C)c3)c(OC)n2)cc1C)c1ccccc1F , its IC50 was 4.5

// sample COc1nc(-c2cc(C)c(NC3CC3)nn2)ccc1-n1cnc(C)c1 , its IC50 was 425

// sample COc1cc([C@H](C)Nc2nnc(-c3ccc(-n4cnc(C)c4)c(OC)n3)cc2C)ccc1F , its IC50 was 15

// sample COc1nc(-c2cc(C)c(N[C@H](CO)c3ccc(F)cc3)nn2)ccc1-n1cnc(C)c1 , its IC50 was 1100

// sample COc1nc(-c2cc(C)c(N[C@@H](C)c3cccc(F)c3)nn2)ccc1-n1cnc(C)c1 , its IC50 was 7

// sample COc1nc(-c2cc(C)c(N[C@@H](C)c3ccc(C)cc3)nn2)ccc1-n1cnc(C)c1 , its IC50 was 7.5
